Provenance of the data: paper PMC4335062

What Kd was measured for each of the following?
Target: MAF (Homo sapiens)
Sequence (O75444 288-351 limits assumed): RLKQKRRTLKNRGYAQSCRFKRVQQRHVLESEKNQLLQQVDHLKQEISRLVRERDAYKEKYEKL
Test: Direct-binding FRET assay
Parameters: made in house
Settings: 37°C; N-terminal rhodamine design; mean or single; read-out: Kd
Where no end group is shown, it is not given here.

Seq Text: NQIKTLRTRLSKLRKDNLQLEKDIANLERKAKDLRAEKEQLEYEL [ATF4-d1]
Measurement Target: MAF (Homo sapiens)
Measured Quantity: Kd
Value Observed: > 1000 nM

Query sequence follows.
Lookup: What does the record list as Kd for EREAQLENRVAHLKEKNQELKAQNLHLKEALSEAQNRNQELKNDA [XBP1-d1] ?
Found: > 1000 nM

====

Target: NFE2L1 (Homo sapiens)
Sequence (Q14494 654-717 limits assumed): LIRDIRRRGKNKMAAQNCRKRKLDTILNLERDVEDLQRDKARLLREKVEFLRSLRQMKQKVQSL
Assay: Direct-binding FRET assay
Set-up: made in house
Conditions: Kd, 23°C; C-terminal rhodamine design; mean or single
Where no end group is shown, it is not given here.
Measured Quantity: Kd

Lookup: What does the record list as Kd for SIAATLEKEEANLEKMNKKLAAEIESLLKEKDKLESVLNYHE [JUN-d1] ?
Found: > 5 µM

====

Target: MAFG (Homo sapiens)
Sequence (O15525 51-114 limits assumed): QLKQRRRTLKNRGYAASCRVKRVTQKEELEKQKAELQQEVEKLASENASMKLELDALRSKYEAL
Experiment: Direct-binding FRET assay
Set-up: made in house
Settings: 4°C; N-terminal rhodamine design; mean or single
pKd: −log10 of the molar value. Where no end group is shown, it is not given here.
Measured Quantity: pKd

Lookup: Lab request: please report pKd under test system MAFG (Homo sapiens) for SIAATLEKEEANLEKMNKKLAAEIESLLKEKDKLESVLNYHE [JUN-d1]
Found: < 6.00

====

Target: CREB1 (Homo sapiens, UniProt P16220)
Construct: made in house
Sequence (P16220 269-327 limits assumed): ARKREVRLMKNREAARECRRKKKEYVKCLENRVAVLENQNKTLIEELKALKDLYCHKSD
Test: Direct-binding FRET assay
Settings: 4°C; C-terminal rhodamine design; repeat 1; read-out: Kd
Protocol: The direct binding assay was performed manually in 384-well plates and is similar to a previously described assay. Wells were filled with 20 μL of 1 mM TCEP-HCl. […] Briefly, the Kd of the designed peptide homodimer was experimentally determined and used with previously determined target homodimer Kd values to determine the heterodimer Kd. […] A minimum 15% change in the donor fluorescence upon titrating the acceptor peptide from 0 to 1000 nM was required for a fit to be attempted. […]
Where no end group is shown, it is not given here.
Measured Quantity: Kd

Lookup: What does the record list as Kd for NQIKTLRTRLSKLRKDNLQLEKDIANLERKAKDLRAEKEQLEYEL [ATF4-d1] ?
Found: > 1000 nM

====

Molecular target: ATF6 (Homo sapiens)
Sequence (P18850 306-369 limits assumed): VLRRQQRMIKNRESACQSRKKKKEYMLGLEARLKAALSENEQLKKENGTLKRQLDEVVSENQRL
Test: Direct-binding FRET assay
Design: made in house
Conditions: 37°C; C-terminal rhodamine design; repeat 1; read-out: Kd
Protocol: The direct binding assay was performed manually in 384-well plates and is similar to a previously described assay. Wells were filled with 20 μL of 1 mM TCEP-HCl. […] Briefly, the Kd of the designed peptide homodimer was experimentally determined and used with previously determined target homodimer Kd values to determine the heterodimer Kd. […] A minimum 15% change in the donor fluorescence upon titrating the acceptor peptide from 0 to 1000 nM was required for a fit to be attempted. […]
pKd: −log10 of the molar value. Where no end group is shown, it is not given here.
Measured Quantity: pKd

Lookup: What does the record list as pKd for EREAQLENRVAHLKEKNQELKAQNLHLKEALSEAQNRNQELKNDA [XBP1-d1] ?
Found: < 5.30
